Assay: Differential scanning calorimetry (thermal stability, Tm)
Type: physicochemical
Conditions: DSC, Table 3
Provide the reported Tm of each item.
The figure you give is taken to be in °C; do not add the unit.

Qu. Dear colleague, I am looking for the recorded Tm of the following molecule: 353F10 (protein) VSDVPRDLEVVAATPTSLLISWPTHYKVARYYRITYGETGGNSPVQEFTVPKHTYTATISGLKPGVDYTITVYAVTTTKGLRHYGPISINYRTHHHHHH
Ans. 59

Qu. Dear colleague, I am looking for the recorded Tm of the following molecule: 338A05 (protein) VSDVPRDLEVVAATPTSLLISWSDSLKVSRYYRITYGETGGNSPVQEFTVPKQYHTATISGLKPGVDYTITVYAVTPSNIIGRHYGPISINYRTHHHHHH
Ans. 68

Qu. Dear colleague, I am looking for the recorded Tm of the following molecule: 353H09 (protein) VSDVPRDLEVVAATPTSLLISWSDKLKVQRYYRITYGETGGNSPVQEFTVPKHDRTATISGLKPGVDYTITVYAVTKMRDYRPISINYRTHHHHHH
Ans. 55

Qu. Dear colleague, I am looking for the recorded Tm of the following molecule: 354A10 (protein) VSDVPRDLEVVAATPTSLLISWSNRLVVKRYYRITYGETGGNSPVQEFTVPHQMKTATISGLKPGVDYTITVYAVTPGGYSGRNYGPISINYRTHHHHHH
Ans. 46
